Numbers sourced from PubChem BioAssay (NCI).

test system: K-562 leukemia; test: NCI-60 one-dose screen, 48 h; conditions: 10 µM unless noted
The panel holds about 83,000 compounds, 20% with a hit somewhere; the sample as a whole holds those more often. Active and inactive are the calls of the source. How the source made its calls: active means growth percent below 10; inactive means the rest.
The reply should name one outcome from 1 = active, 0 = inactive

Solved entries:
                                   compound  category
0  Cn1c(=O)c2c(nc(Br)n2CCC(=O)Nc2ccc(F)cc2)n(C)c1=O         0
1  CC(NC(=O)C(C)Oc1ccc(Cl)cc1Cl)C(=O)O (stereo unspecified)         0
2  COc1cc(C2C=C(c3ccc(C)cc3)Nc3nc(SC)[nH]c(=O)c32)ccc1Oc1ccnc2cc(Cl)ccc12 (stereo unspecified)         0
3                Clc1ccc2nc(Cl)c3ccccc3c2c1         0
4          CCOC(=O)c1ccccc1OC(=O)NNc1ccccc1         1
5  COc1cc(Oc2cc(-c3cccnc3)ccc2NC(=O)Nc2ccc(F)cc2F)cc(OC)c1OC         0
6  O=C(Nc1cccc(C(F)(F)F)c1)Nc1ccc(OCc2nnc(-c3ccc(Cl)cc3)o2)c(F)c1         0
7        CN(C)c1ccc2c(c1)/C(=N/O)c1ccccc1-2         0
8  COC(=O)CCC1=C(C)C(C)=N/C1=C\c1[nH]c(-c2ccc[nH]2)cc1OC         1
9                      Cc1nc(N)[nH]c(=O)c1C         0

Q: Please let me know the test result on file for `O=C1OCCCCCCCCCC#Cc2ccccc21` .
Result: 0

---

system: MCF7 breast; experiment: NCI-60 one-dose screen, 48 h; details: 10 µM unless noted
Compounds without any hit were thinned out: in the full panel of roughly 83,000, 20% have a hit. Calls of active or inactive are those of the source. Rule for the calls: active = growth percent below 10; inactive = the rest.
Log the outcome using a class from active, inactive

Solved cases below.
In [3]: df
Out[3]:
                                   molecule  measured_target  category
0       O=C1c2ccccc2-c2c1nc1ccccc1[n+]2[O-]      MCF7 breast  inactive
1          Cc1cc([N+](=O)[O-])c(C)cc1C(=O)O      MCF7 breast  inactive
2      O=C(OCCBr)c1ccc(Cl)c([N+](=O)[O-])c1      MCF7 breast  inactive
3  C[N+]1(CCc2ccccc2)CCC(CCC2CC[N+](C)(CCc3ccccc3)CC2)CC1 (stereo not given)      MCF7 breast  inactive
4  O=C1C(Cl)=C(N=Nc2c(Cl)c(O)c3ccccc3c2O)C(=O)c2ccccc21      MCF7 breast  inactive
5  COc1ncc(-c2ccc3nccc(C#CCN4CCN(S(C)(=O)=O)CC4)c3c2)cc1NS(=O)(=O)c1ccc(F)cc1F      MCF7 breast    active
6  Cc1ccc(C(=O)Nc2ccc(Cl)cc2C(=O)NCc2ccccc2)cc1      MCF7 breast  inactive
7     O=C(/C(=N/O)S(=O)(=O)c1ccccc1)c1cccs1      MCF7 breast  inactive
8  COc1cc(C2NC(c3ccc(Cl)cc3)C(C)C(=NC(=O)c3cnccn3)C2C)cc(OC)c1OC (stereo not given)      MCF7 breast  inactive

// switching to the query molecule
Q: Call for entry `Nc1nonc1-c1nc2ccccc2n1CC(=O)Nc1ccc2c(c1)COC2=O` :
Result: inactive

---

Tested on: SN12C renal
Assay: NCI-60 one-dose screen, 48 h
Settings: 10 µM unless noted
Procedure: Growth inhibition of the SN12C human tumor cell line is measured as a screen for anti-cancer activity. Cells are grown in 96 well plates and exposed to the test compound for 48 hours. Compounds are tested at a single concentration, which is 10^-5 M for most compounds. The reported endpoint is percent growth (GI% or GIPRCNT), where numbers from 0 - 100% represent growth inhibition, and numbers from -100% - 0 represent cell death. For example, a value of 40 represents 60% growth inhibition. […]
About 83,000 compounds went through this panel and 20% of them were active in at least one assay; those are over-represented in the sample as a whole. The source made the active and inactive calls. How the source made its calls: active means growth percent below 10; inactive means the rest.
Could you please pick one outcome from this set? T = active, F = inactive

Reference set (3 entries):
In [3]: df
Out[3]:
                                   molecule  category
0  CC12CCCCC1C(C(N)=O)C(=O)O2 (stereo not drawn)         F
1            COc1cc2c(c(OC)c1OC)CCc1cnoc1-2         F
2                      COc1ccc(COC(C)=O)cc1         F

Q: Hi, sorry to bother you, what did the test record for `c1ccc(-c2nnc(Nc3nnc(-c4ccccc4)s3)s2)cc1` ?
Result: F

Q: Please let me know the test result on file for `COc1ccc(/C=C2\COc3ccc(O)c(O)c3C2=O)cc1OC` .
Result: T

Q: Recorded test call requested for `S=C1SCN(Cc2ccccc2)CN1Cc1ccco1`
Result: F

Q: Outcome? `COc1ccc2nc3cc(Cl)ccc3c(Nc3cc(C(C)C)c(O)cc3C)c2c1`
Result: F

Q: # lookup: test call for `Cc1cc([N+](=O)[O-])c(C)cc1C(=O)O`
Result: F

Q: Hello, I am checking results. What call was entered for `CC(C)[C@]12O[C@H]1[C@@H]1O[C@]13[C@]1(O[C@H]1C[C@H]1C4=C(CC[C@@]13C)C(=O)OC4)[C@@H]2OC(=O)CN(C)C` ?
Result: F

Q: I would be grateful if you could indicate the recorded call for CC(=O)c1nc2ccccc2n1CCn1cc(CC(N)C(=O)O)c2ccccc21 (stereo not drawn) .
Result: F

Q: Can you look up the reported call for `COc1cccc(CCC2C(=O)CCCC2=O)c1` for me?
Result: F

Q: I'd appreciate the recorded outcome for `Clc1ccc2c(Nc3ccc4oc(NCCN5CCCC5)nc4c3)ccnc2c1` from this test.
Result: F

Q: Hi team, can someone confirm the assay call for `CC(=O)Nc1ccc2c(c1)Cc1c(F)c(F)c(F)c(F)c1-2` ?
Result: F

Q: GET /call?item= `Cc1cc(NC(=O)c2ccc(N)cc2)ccc1N=Nc1ccc2c(O)c(N=Nc3ccc(Cl)c(S(=O)(=O)O)c3)c(S(=O)(=O)O)cc2c1` returns the recorded outcome of this test.
Result: F

Q: For this molecule, state the assay outcome: `C=CCOc1ccc2c(c1)CC[C@@H]1[C@@H]2CC[C@@]2(C)[C@H]1CC[C@]2(C)O`
Result: F

Q: Dear colleague, could you share the recorded outcome for `c1cnc2ccc3ncccc3c2c1` when you have a moment?
Result: F

Q: State the result this test recorded for `CN(C)c1ccc(/C=C(\C#N)c2nc3ccccc3c(=O)[nH]2)cc1` .
Result: F

Q: Check the results log: what was the call for `C/C(=C\CCc1ccoc1)CC/C=C(\C)CCCN1CCC(CO)CC1` ?
Result: F

Q: What did the test return for `O=C1C(=O)c2ccc(Br)cc2-c2cc(Br)ccc21` ?
Result: F

Q: I'd appreciate the recorded outcome for `COc1cc(/C=C/c2nnc(-c3cc(-c4ccccc4)n[nH]3)o2)cc(OC)c1OC` from this test.
Result: F

Q: Kindly provide the recorded test outcome for the following molecule: `C[C@]12CC[C@@H]3c4ccc(O)c([N+](=O)[O-])c4CC[C@H]3[C@@H]1CC[C@@H]2NS(=O)(=O)c1ccc(C(F)(F)F)cc1`
Result: F

Q: Please state the recorded outcome for this molecule: `CCCC[N+](CCCC)=c1ccc2nc3c(C)cc(N(CC)CC)cc3sc-2c1`
Result: T

Q: Name the outcome recorded for `O=C(O)C(=O)O` in the assay.
Result: F

---

system: RPMI-8226 leukemia; experiment: NCI-60 one-dose screen, 48 h (100 = growth as untreated, 0 = no growth, -100 = all killed); details: 10 µM unless noted
The panel holds about 83,000 compounds, 20% with a hit somewhere; the sample as a whole holds those more often. Calls of active or inactive are those of the source. Rule for the calls: active = growth percent below 10; inactive = the rest.
Below is a list of entries, each paired with its recorded growth value.

Q: Name the recorded growth for `O=C(Nc1ccc(Oc2ccc(NC(=O)Nc3ccc([N+](=O)[O-])cc3)cc2)cc1)Nc1ccc([N+](=O)[O-])cc1` .
Result: -53.5% (active)

Q: Requested field: growth. Item: `Cc1cc2c(cc1C)Nc1sc(NC(=O)CN3CCN(C)CC3)nc1C(=O)N2`
Result: 105% (inactive)

Q: Record request: growth value, item `COc1ccc(-c2cc(Cc3cccs3)c(=O)n(Cn3cncn3)n2)cc1`
Result: 98.7% (inactive)

Q: // lookup growth for `O=C(/C(=N/O)S(=O)(=O)c1ccccc1)c1cccs1`
Result: 101% (inactive)

Q: Can you share its growth? I mean this compound: `O=C(/C(=C/c1cccc([N+](=O)[O-])c1)c1ccccc1)c1ccccc1`
Result: -7.27% (active)

Q: # query: growth of entry `S=C(c1ccccc1)N1CCN(c2cccc(Cl)c2)CC1`
Result: 86.9% (inactive)

Q: Would you kindly share the measured growth for `CCCCCCC/C(=N\N=C(N)N)c1ccc(O)cc1` ?
Result: 11% (inactive)

Q: I have this compound here, `Nc1ccc2c(c1)/C(=N/O)c1cc([N+](=O)[O-])ccc1-2` , and I need its recorded growth.
Result: 58.9% (inactive)

Q: Find the recorded growth belonging to `CCC1=C(c2ccc(OC)cc2)C(C)(C)Oc2c1ccc(O)c2CN1CCCC1` and report it.
Result: 0.544% (active)

Q: Any idea what its growth is? The compound is `CCN(CC)CCOc1ccc(C2=C(c3ccccc3)CCc3cc(OC)ccc32)cc1`
Result: -64.7% (active)

Q: If you can, please state the reported growth value of `Cn1cc(-c2nc(-c3c[nH]c4ncc(F)cc34)cs2)c2cccnc21` .
Result: 100% (inactive)
